We begin with a simple list: items and their reported IC50.
Molecular target: ALK (Homo sapiens, UniProt Q9UM73)
Construct: host or cells: baculovirus expression system
Sequence (Q9UM73 19-1620): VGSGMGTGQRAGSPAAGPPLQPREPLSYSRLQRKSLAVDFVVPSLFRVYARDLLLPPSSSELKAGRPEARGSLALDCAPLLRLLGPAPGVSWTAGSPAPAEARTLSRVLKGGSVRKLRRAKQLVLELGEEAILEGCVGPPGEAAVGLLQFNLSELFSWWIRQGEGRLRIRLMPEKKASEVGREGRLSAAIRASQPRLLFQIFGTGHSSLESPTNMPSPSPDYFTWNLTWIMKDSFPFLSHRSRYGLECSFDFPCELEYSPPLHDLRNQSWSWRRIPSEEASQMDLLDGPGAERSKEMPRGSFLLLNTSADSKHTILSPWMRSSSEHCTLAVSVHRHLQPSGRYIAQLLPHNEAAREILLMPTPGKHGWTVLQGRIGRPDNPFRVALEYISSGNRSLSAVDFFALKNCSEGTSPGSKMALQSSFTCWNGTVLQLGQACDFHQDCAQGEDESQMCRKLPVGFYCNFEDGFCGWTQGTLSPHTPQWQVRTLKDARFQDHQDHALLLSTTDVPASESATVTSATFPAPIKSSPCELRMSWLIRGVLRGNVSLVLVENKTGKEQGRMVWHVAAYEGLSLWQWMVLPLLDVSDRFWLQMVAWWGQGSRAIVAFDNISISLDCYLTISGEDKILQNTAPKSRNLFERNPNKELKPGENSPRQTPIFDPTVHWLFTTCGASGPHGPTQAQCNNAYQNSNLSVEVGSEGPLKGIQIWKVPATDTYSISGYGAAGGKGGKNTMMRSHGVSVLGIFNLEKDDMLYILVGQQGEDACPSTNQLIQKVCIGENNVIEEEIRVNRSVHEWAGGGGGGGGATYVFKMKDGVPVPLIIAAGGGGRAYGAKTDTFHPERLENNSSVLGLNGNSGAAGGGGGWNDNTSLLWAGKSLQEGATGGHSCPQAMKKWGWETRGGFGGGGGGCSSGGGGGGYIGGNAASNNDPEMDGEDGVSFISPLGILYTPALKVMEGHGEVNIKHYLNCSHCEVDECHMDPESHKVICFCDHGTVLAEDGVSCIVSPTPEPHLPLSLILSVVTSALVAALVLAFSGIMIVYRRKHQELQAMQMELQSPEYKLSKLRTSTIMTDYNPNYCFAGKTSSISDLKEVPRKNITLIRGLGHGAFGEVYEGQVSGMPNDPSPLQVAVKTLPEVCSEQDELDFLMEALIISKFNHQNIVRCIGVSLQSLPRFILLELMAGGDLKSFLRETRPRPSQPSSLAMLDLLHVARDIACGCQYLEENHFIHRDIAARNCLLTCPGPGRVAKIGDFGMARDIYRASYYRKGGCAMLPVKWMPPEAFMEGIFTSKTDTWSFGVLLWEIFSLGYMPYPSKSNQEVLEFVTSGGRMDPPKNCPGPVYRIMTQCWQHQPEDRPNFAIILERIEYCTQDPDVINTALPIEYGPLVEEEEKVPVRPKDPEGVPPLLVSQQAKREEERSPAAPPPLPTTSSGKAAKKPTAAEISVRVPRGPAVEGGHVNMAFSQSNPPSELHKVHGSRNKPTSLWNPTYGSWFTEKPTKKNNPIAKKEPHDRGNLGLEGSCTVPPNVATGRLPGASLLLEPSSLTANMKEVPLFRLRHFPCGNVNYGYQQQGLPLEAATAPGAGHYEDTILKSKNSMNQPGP
Assay: ALK Kinase Assay (ELISA/TRF, PLC-γ substrate)
Assay type: biochemical
Details: ALK kinase inhibition, 1 μM ATP; read-out: ALK Potency

Worked cases, answers included:
>  <compound>
COc1ccccc1-c1ccc2cnc(Nc3ccc4c(c3)CS(=O)(=O)C4)nn12 [Example 659]

>  <result>
< 0.1 µM

$$$$
>  <compound>
CN1CCN(c2cccc(Nc3ncc4ccc(NCc5cccnc5)n4n3)c2)CC1 [Example 1168]

>  <result>
1 to 10 µM

$$$$
>  <compound>
COc1ccc(-c2ccc3cnc(Nc4ccc(N5CCOCC5)nc4)nn23)cn1 [Example 1106]

>  <result>
1 to 10 µM

$$$$

(Q) Request body: readout IC50, system ALK (Homo sapiens, UniProt Q9UM73), query COc1ccc(-c2ccc3cnc(Nc4ccc5c(c4)CCN(C)C5)nn23)cn1 [Example 919] . Return the value.
(A) 0.1 to 1 µM

Attribution: patent US8471005B2
